src = ChEMBL document CHEMBL1143641

Molecular target: Heat shock protein HSP 90-alpha (Homo sapiens, UniProt P07900)
testReadout: Kd (nM)
Report as a plain number; the unit nM is understood.

Please look up its Kd: `CO[C@H]1/C=C\C=C(/C)C(=O)NC2=CC(=O)C(NCCF)=C(C[C@@H](C)C[C@H](OC)[C@H](O)[C@@H](C)/C=C(\C)[C@@H]1OC(N)=O)C2=O` 800

New cases:
Entry `CO[C@H]1/C=C\C=C(/C)C(=O)NC2=CC(=O)C(N3CCC3)=C(C[C@@H](C)C[C@H](OC)[C@H](O)[C@@H](C)/C=C(\C)[C@@H]1OC(N)=O)C2=O` : reported Kd = ? 1400
